viability at 24 h, 50 µM listing for selected compounds.
# Type: cell-based, human
# Settings: human, Cell viability (%)
# Description: For the evaluation of peptides’ cytotoxicity, the human immortalized keratinocytes (HaCaT cells), purchased from AddexBio (San Diego, CA, USA), and BEAS-2B were used. […] The purple formazan crystals were dissolved using acidified 2-propanol and a microplate reader (Infinite M200; Tecan, Salzburg, Austria) was used to measure the absorbance of each well at 570 nm. […]
Bridge positions count the residues as written; N and C are the ends. Square brackets hold non-standard residues; d marks the D form. Peptide text beside a SMILES is read from it. Phe(4-guanidino) = N=C(N)Nc1ccc(C[C@H](N)C(=O)O)cc1

Compound: CC[C@H](C)[C@H](NC(=O)[C@H](CCCNC(=N)N)NC(=O)[C@H]1CCC(=O)NCCCC[C@H](NC(=O)[C@H](Cc2ccccc2)NC(=O)[C@H](Cc2c[nH]c3ccccc23)NC(=O)[C@@H]2CCCN2C(=O)[C@@H](NC(=O)[C@@H](N)Cc2ccccc2)C(C)C)C(=O)N[C@@H](CCCCN)C(=O)N[C@@H](Cc2ccc(NC(=N)N)cc2)C(=O)N[C@H](CC(C)C)C(=O)N1)C(=O)N[C@@H](CC(C)C)C(N)=O [Peptide 10, FVPWF[KK(p-guanidino)Fle]RIL] (H-FVPWFKK[Phe(4-guanidino)][dL][dE]RIL-NH2; lactam 6-10)
viability at 24 h, 50 µM: 116%

Prompt: Given the entry CC[C@H](C)[C@H](NC(=O)[C@H](CCCNC(=N)N)NC(=O)[C@H]1CCC(=O)NCCCC[C@H](NC(=O)[C@H](Cc2ccccc2)NC(=O)[C@H](Cc2c[nH]c3ccccc23)NC(=O)[C@@H]2CCCN2C(=O)[C@@H](NC(=O)[C@@H](N)Cc2ccc(NC(=N)N)cc2)C(C)C)C(=O)N[C@@H](CCCCN)C(=O)N[C@@H](Cc2ccccc2)C(=O)N[C@H](CC(C)C)C(=O)N1)C(=O)N[C@@H](CC(C)C)C(N)=O [Peptide 6, (p-guanidino)FVPWF[KKFle]RIL] (H-[Phe(4-guanidino)]VPWFKKF[dL][dE]RIL-NH2; lactam 6-10) , report its measured viability at 24 h, 50 µM.
Response: > 70%
